Measured IC50 accompanies every entry in the list below.
Biological target: unphosphorylated-BTK kinase domain (UP-BTK), GST-tagged human BTK (389-659aa) (Homo sapiens (Human))
Sequence (Q06187 389-659): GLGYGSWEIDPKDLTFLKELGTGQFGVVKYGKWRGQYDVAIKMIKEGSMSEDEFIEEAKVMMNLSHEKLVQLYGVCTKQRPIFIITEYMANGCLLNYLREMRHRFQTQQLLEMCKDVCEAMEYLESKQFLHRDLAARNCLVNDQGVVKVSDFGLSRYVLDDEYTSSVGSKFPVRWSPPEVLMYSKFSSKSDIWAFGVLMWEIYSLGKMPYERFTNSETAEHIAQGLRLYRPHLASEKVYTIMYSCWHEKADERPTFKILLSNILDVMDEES
Test: BTK Kinase Lanthascreen Binding Assay
Settings: read-out: BTK_I_binding pIC50 (converted)

compound | IC50
C=CC(=O)N[C@H]1CC[C@H](NC(=O)c2sc3nccc4c3c2NC(=O)N4c2ccnc(-c3ccccc3)c2)C1 | > 1000 nM
C=CC(=O)N[C@H]1CCC[C@@H](NC(=O)c2sc3nccc4c3c2NC(=O)N4c2ccnc(-c3ccccc3)c2)C1 | > 1000 nM
N[C@H]1CCC[C@H]1NC(=O)c1sc2nccc3c2c1NC(=O)N3c1cnnc(-c2ccccc2)c1 | > 1000 nM

Qu. For "N[C@H]1CCC[C@H]1NC(=O)c1sc2nccc3c2c1NC(=O)N3c1cc(-c2ccccc2)ncn1" , what is its reported IC50?
Ans. > 1000 nM

Qu. What measured IC50 goes with Cc1nc(Oc2ccccc2)ccc1N1C(=O)Nc2c(C(=O)N[C@@H]3CCCC[C@H]3N)sc3nccc1c23 (single isomer, unassigned) ?
Ans. > 1000 nM

Qu. Need IC50 of C=CC(=O)N[C@H]1CCCC[C@H]1NC(=O)c1sc2nccc3c2c1NC(=O)N3c1cnc(OCC(C)C)cc1C (single isomer, unassigned) , thanks.
Ans. > 1000 nM

Qu. Given CCC(=O)N[C@H]1CCCC[C@H]1NC(=O)c1sc2nccc3c2c1NC(=O)N3c1ccc(Oc2ccccc2)nc1C (single isomer, unassigned) , state its recorded IC50.
Ans. > 1000 nM

Qu. // IC50 lookup, key: "N[C@H]1CCC[C@H]1NC(=O)c1sc2nccc3c2c1NC(=O)N3c1ccc(OC2CCOCC2)cc1"
Ans. > 1000 nM

Qu. Field request: IC50 | item: "CC(=O)N[C@H]1CCC[C@H]1NC(=O)c1sc2nccc3c2c1NC(=O)N3c1ccnc(-c2ccccc2)c1"
Ans. > 1000 nM

Qu. Which IC50 value is on record for C=CC(=O)N[C@@H]1CCCC[C@H]1NC(=O)c1sc2nccc3c2c1NC(=O)N3c1ccc(OC(C)C)cc1C (single isomer, unassigned) ?
Ans. > 1000 nM

Qu. For "N[C@H]1CCC[C@H]1NC(=O)c1sc2nccc3c2c1NC(=O)N3c1cccc(-c2ccccn2)c1" , what is its reported IC50?
Ans. > 1000 nM

Qu. Give the measured IC50 of Cc1nc(Oc2ccccc2)ccc1N1C(=O)Nc2c(C(=O)N[C@H]3CC[C@H](N)C3)sc3nccc1c23 (single isomer, unassigned) .
Ans. > 1000 nM

Qu. Fill blank: measured IC50 of the compound Cc1cc(OC(C)C)ncc1N1C(=O)Nc2c(C(=O)N[C@@H]3CC[C@H](N)C3)sc3nccc1c23 (single isomer, unassigned) is ____.
Ans. > 1000 nM
